Test system: Escherichia coli TOP10
Assay Overview: shrunken log2 fold change of peptide-encoding DNA abundance (4.5 h post-induction vs induction); higher = less antimicrobial activity (less host growth inhibition)
Measurement Context: time post-induction: 4.5 h; library: site-saturation at positions 5, 18, 19, 20
Property Measured: shrunken log2 fold change
Please give only the number in your answer, with no unit.

Below, each entry is followed by its recorded shrunken log2 fold change result.
RRIRFRPPRLPRPRPRPTVNPRP ... 2.04
RRIRYRPPRLPRPRPRPSGPPRP ... -0.395
RRIRDRPPRLPRPRPRPQTWPRP ... -0.109

stdin: // map RRIRQRPPRLPRPRPRPCDFPRP to recorded shrunken log2 fold change (system: Escherichia coli TOP10)
stdout: 0.0344

stdin: Find shrunken log2 fold change (Escherichia coli TOP10) for the entry RRIRKRPPRLPRPRPRPQPIPRP
stdout: 0.424

stdin: # get_value(readout= shrunken log2 fold change, system= Escherichia coli TOP10) for RRIRARPPRLPRPRPRPQTFPRP
stdout: -0.528

stdin: Hello, I am looking for reported shrunken log2 fold change with Escherichia coli TOP10 for RRIRWRPPRLPRPRPRPAQFPRP . Could you help?
stdout: 0.248

stdin: Write down the reported shrunken log2 fold change of RRIRNRPPRLPRPRPRPPLTPRP , test system: Escherichia coli TOP10.
stdout: 0.0501

stdin: Param readout= shrunken log2 fold change; system= Escherichia coli TOP10; entry= RRIRDRPPRLPRPRPRPLSVPRP ; returns value.
stdout: -0.0465

stdin: Item: RRIRRRPPRLPRPRPRPIPLPRP Test system: Escherichia coli TOP10 Read-out: shrunken log2 fold change Value: ?;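 note: peptides expressed intracellularly from a pBAD plasmid library in pooled LB shake-flask culture, induced with 0.3% L-arabinose, DNA abundance read by NGS, three biological replicates, DESeq2 with apeglm shrinkage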
stdout: 0.194

stdin: Tell me reported shrunken log2 fold change for RRIRWRPPRLPRPRPRPRLIPRP , tested with Escherichia coli TOP10.
stdout: 0.55

stdin: Value wanted: shrunken log2 fold change (Escherichia coli TOP10) of entry RRIRVRPPRLPRPRPRPYIKPRP
stdout: -0.982
